Recorded values, source patent US20220233549A1.

- Tested on: SINV (TR-339)
- Measurement notes: organism not typed
- Assay type: cell-based
pEC50: −log10 of the molar value.
Observation type: pEC50

Problem: Tell me the measured pEC50 of CN1C(=O)C(CC(=O)NCC2CCCCC2)Sc2ncccc21 (stereo not shown) , please.
Solution: < 4.00

---

- Test system: Influenza
- Measurement notes: Activity of Example 1 against non-alphaviruses: Influenza
- Type: cell-based
Observation type: EC50

Problem: Tell me the measured EC50 of CN1C(=O)C(CC(=O)NCC2CCCCC2)Sc2ncccc21 (stereo not shown) , please.
Solution: > 100 µM

---

- System: BK Polyomavirus
- Measurement notes: Activity of Example 1 against non-alphaviruses: BK Polyomavirus
- Format: cell-based
- Assay conditions: Betapolyomavirus hominis
Observation type: EC50

Problem: Tell me the measured EC50 of CN1C(=O)C(CC(=O)NCC2CCCCC2)Sc2ncccc21 (stereo not shown) , please.
Solution: > 100 µM
